Source listed as patent US10174011B2.

target: human recombinant 5-HT1A receptor (Homo sapiens (Human), UniProt P08908); test: 5-HT1A receptor agonism activity test (inhibition of cAMP production, LANCE cAMP 384 Kit); conditions: HEK293 cells expressing human recombinant 5-HT1A receptor; test concentration 0.1 nM-10000 nM; read-out: 5-HT1A receptor agonism (EC50, mol/L)
Sequence (P08908 whole entry): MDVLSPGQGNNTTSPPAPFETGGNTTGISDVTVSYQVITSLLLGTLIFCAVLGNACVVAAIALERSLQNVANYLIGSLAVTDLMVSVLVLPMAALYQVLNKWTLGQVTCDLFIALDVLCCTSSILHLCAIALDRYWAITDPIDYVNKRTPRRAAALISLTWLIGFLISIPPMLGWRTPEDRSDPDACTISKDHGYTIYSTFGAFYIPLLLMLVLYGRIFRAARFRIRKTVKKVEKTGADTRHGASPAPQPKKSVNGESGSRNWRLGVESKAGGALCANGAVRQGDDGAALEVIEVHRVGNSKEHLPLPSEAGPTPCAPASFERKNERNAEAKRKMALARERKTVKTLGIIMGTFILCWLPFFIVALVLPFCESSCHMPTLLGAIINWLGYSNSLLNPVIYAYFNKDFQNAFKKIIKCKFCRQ
Hi there, I'd appreciate the recorded EC50 for every entry that follows.
Just the number in nM, nothing appended.

Hey, human recombinant 5-HT1A receptor (Homo sapiens (Human), UniProt P08908) data for O=C1CCc2cc(CCN3CCN(c4cccc5sc(F)cc45)CC3)ccc2N1 : EC50 came out at 1.25

Hey, human recombinant 5-HT1A receptor (Homo sapiens (Human), UniProt P08908) data for COc1cc2c(N3CCN(CCc4ccc5c(c4)CCC(=O)N5)CC3)cccc2s1 : EC50 came out at 1.29

Hey, human recombinant 5-HT1A receptor (Homo sapiens (Human), UniProt P08908) data for c1ccc2[nH]c(CN3CCN(c4cccc5sccc45)CC3)nc2c1 : EC50 came out at 4.55

Hey, human recombinant 5-HT1A receptor (Homo sapiens (Human), UniProt P08908) data for O=C1CCc2cc(CCCCN3CCN(c4cccc5sccc45)CC3)ccc2N1 : EC50 came out at 29.5

Hey, human recombinant 5-HT1A receptor (Homo sapiens (Human), UniProt P08908) data for O=C1Cc2cc(CCN3CCC(c4cccc5sccc45)CC3)c(Cl)cc2N1 : EC50 came out at 3.11

Hey, human recombinant 5-HT1A receptor (Homo sapiens (Human), UniProt P08908) data for O=C1COc2c(F)cc(CCCCN3CCN(c4cccc5sccc45)CC3)cc2N1 : EC50 came out at 2.53

Hey, human recombinant 5-HT1A receptor (Homo sapiens (Human), UniProt P08908) data for Cc1nc2ccc(CCN3CCN(c4cccc5sccc45)CC3)cc2c(=O)[nH]1 : EC50 came out at 1.74

Hey, human recombinant 5-HT1A receptor (Homo sapiens (Human), UniProt P08908) data for O=C1Cc2cc(C(O)CN3CCN(c4cccc5sccc45)CC3)ccc2N1 (stereo not shown) : EC50 came out at 6.3

Hey, human recombinant 5-HT1A receptor (Homo sapiens (Human), UniProt P08908) data for O=C1CSc2ccc(CCN3CCN(c4cccc5sccc45)CC3)cc2N1 : EC50 came out at 0.68

Hey, human recombinant 5-HT1A receptor (Homo sapiens (Human), UniProt P08908) data for O=C1CCc2cc(CCN3CCC(c4cccc5sccc45)CC3)ccc2N1 : EC50 came out at 2.9

Hey, human recombinant 5-HT1A receptor (Homo sapiens (Human), UniProt P08908) data for O=C1CCc2cc(Cl)c(CCN3CCN(c4cccc5sccc45)CC3)cc2N1 : EC50 came out at 463

Hey, human recombinant 5-HT1A receptor (Homo sapiens (Human), UniProt P08908) data for O=C1Cc2cc(CCN3CCC(c4cccc5sccc45)CC3)ccc2N1 : EC50 came out at 2.8

Hey, human recombinant 5-HT1A receptor (Homo sapiens (Human), UniProt P08908) data for O=C1COc2cc(F)c(CCN3CCN(c4cccc5sccc45)CC3)cc2N1 : EC50 came out at 1.29

Hey, human recombinant 5-HT1A receptor (Homo sapiens (Human), UniProt P08908) data for O=C1Cc2cc(CCN3CCN(c4cncc5sccc45)CC3)c(Cl)cc2N1 : EC50 came out at 100

Hey, human recombinant 5-HT1A receptor (Homo sapiens (Human), UniProt P08908) data for Cc1nc2n(c(=O)c1CCN1CCN(c3cc(F)cc4sccc34)CC1)CCCC2 : EC50 came out at 27.7

Hey, human recombinant 5-HT1A receptor (Homo sapiens (Human), UniProt P08908) data for Cn1c(=O)[nH]c2cc(CCN3CCN(c4cccc5sccc45)CC3)ccc21 : EC50 came out at 6.31
